tested on: 633275-114-R-J1-PDC complex spheroids, viability; experiment: Anticancer human tumor 633275-114-R-J1-PDC patient-derived endometrial adenocarcinoma cell line growth inhibition [GQUAD]; conditions: second compound 0.1 µM; first compound 1 µM; hits give low values
measure_name: viability, T/C (%)
Numbers only, in %.

See these solved cases before continuing.
* CC1COCCN1c1cc(C2(S(C)(=N)=O)CC2)nc(-c2ccnc3[nH]ccc23)n1 (stereo not drawn) + Cc1cnc(CNC(=O)c2c(=O)c3ccc(N4CCCN(C)CC4)nc3n3c2sc2ccccc23)cn1 | 41.5
* C=CC(=O)N1CCN(c2nc(=O)n(-c3c(C)ccnc3C(C)C)c3nc(-c4c(O)cccc4F)c(F)cc23)C(C)C1 (stereo not drawn) + Cc1cnc(CNC(=O)c2c(=O)c3ccc(N4CCCN(C)CC4)nc3n3c2sc2ccccc23)cn1 | 57

Item O=C(NO)c1cnc(N2CCN(S(=O)(=O)c3ccc4ccccc4c3)CC2)nc1 + CN(C)c1ccc(Nc2c3ccc(NC(=O)CCN4CCCC4)cc3nc3cc(NC(=O)CCN4CCCC4)ccc23)cc1 was tested on 633275-114-R-J1-PDC complex spheroids, viability; the reported viability, T/C is 19.6

====

system: 633275-114-R-J1-PDC complex spheroids, viability; test: Anticancer human tumor 633275-114-R-J1-PDC cell line growth inhibition [GQUAD]; conditions: second compound 3.16 µM; first compound 1 µM; hits give low values;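 note: spheroids exposed to the agents for seven days; percent of DMSO vehicle control viability which is 100%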
Under this convention, criterion met denotes viability, T/C strictly below 20% and criterion not met denotes viability, T/C at or above 20%.

• CCCS(=O)(=O)Nc1ccc(F)c(C(=O)c2c[nH]c3ncc(-c4ccc(Cl)cc4)cc23)c1F + Cc1[nH]c2ccc(F)cc2c1-c1nc2c3cccnc3c3ncccc3c2[nH]1 = criterion not met

Input line: I'd appreciate it if you could check whether COc1ncnc(C2CC2)c1-c1ncc2cnn(Cc3ccc(-c4nc(C(F)(F)F)cn4C(C)C)cc3)c2n1 + CN(C)c1ccc(Nc2c3ccc(NC(=O)CCN4CCCC4)cc3nc3cc(NC(=O)CCN4CCCC4)ccc23)cc1 has viability, T/C smaller than 20%.
Output line: criterion not met

Input line: I'd appreciate it if you could check whether O=C(NO)c1cnc(N2CCN(S(=O)(=O)c3ccc4ccccc4c3)CC2)nc1 + CN(C)c1ccc(Nc2c3ccc(NC(=O)CCN4CCCC4)cc3nc3cc(NC(=O)CCN4CCCC4)ccc23)cc1 has viability, T/C smaller than 20%.
Output line: criterion met

Input line: I'd appreciate it if you could check whether CC1COCCN1c1cc(C2(O)CC3CCC(C2)O3)c2cnn(-c3ccn[nH]3)c2n1 (stereo not given) + Cc1[nH]c2ccc(F)cc2c1-c1nc2c3cccnc3c3ncccc3c2[nH]1 has viability, T/C smaller than 20%.
Output line: criterion met

Input line: I'd appreciate it if you could check whether CC(=O)O[C@H]1C(=O)[C@@]2(C)[C@H]([C@H](OC(=O)c3ccccc3)[C@]3(O)C[C@H](OC(=O)[C@H](O)[C@@H](NC(=O)c4ccccc4)c4ccccc4)C(C)=C1C3(C)C)[C@]1(OC(C)=O)CO[C@@H]1C[C@@H]2O + Cc1[nH]c2ccc(F)cc2c1-c1nc2c3cccnc3c3ncccc3c2[nH]1 has viability, T/C smaller than 20%.
Output line: criterion met

====

test system: 633275-114-R-J1-PDC complex spheroids, viability; assay: Anticancer human tumor 633275-114-R-J1-PDC cell line growth inhibition [GQUAD]; conditions: second compound 1 µM; first compound 3.16 µM; active = viability on the fitted dose curve at most 10% of control; inactive = the rest;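 note: spheroids exposed to the agents for seven days; percent of DMSO vehicle control viability which is 100%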
Choose one outcome from this list and give only that: active, inactive

Solved cases (2 shown):
• C#Cc1c(F)ccc2cc(O)cc(-c3ncc4c(N5CC6CCC(C5)N6)nc(OCC56CCCN5CC(F)C6)nc4c3F)c12 (stereo not drawn) + Cc1[nH]c2ccc(F)cc2c1-c1nc2c3cccnc3c3ncccc3c2[nH]1 = inactive
• CC1COCCN1c1cc(-c2ccnn2C)c2ccnc(-c3ccn[nH]3)c2n1 (stereo not drawn) + CN(C)c1ccc(Nc2c3ccc(NC(=O)CCN4CCCC4)cc3nc3cc(NC(=O)CCN4CCCC4)ccc23)cc1 = inactive

--- query ---
Input line: Could you check what this test reported for COc1cccc2c1C(=O)c1c(O)c3c(c(O)c1C2=O)CC(O)(C(=O)CO)CC3OC1CC(N)C(O)C(C)O1 (stereo not drawn) + Cc1cnc(CNC(=O)c2c(=O)c3ccc(N4CCCN(C)CC4)nc3n3c2sc2ccccc23)cn1 ?
Output line: active
